tested on: K4 kissing-loop RNA reporter; experiment: apparent KD of K4 kissing-loop reporter; higher = weaker reporter binding; details: Eterna round: R107; input ligand: arginine 13.2 mM;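 note: bound reporter read as fluorescence of individual clusters on recovered sequencing chips by microscopy, with normalized cluster intensities fitted with a binding model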
// label = condition met if apparent KD of K4 kissing-loop reporter is not less than 400 nM, otherwise condition not met

Item sequence	Target of assay	Assigned class
ACGUAUAUCAGAGGAUAUCGUAUUAAUAUUUUAUCUAUAUAUAUAUGCAGUGAUGUUGCUAUAAUUCGAGAAGGCUGAUUUACGA [JR_ExcFMNB_Sub011]	K4 kissing-loop RNA reporter	condition not met

Continue with the next sequence.
## Task apparent KD of K4 kissing-loop reporter >= 400 nM for AUGUAUAUCUCAGGAUAUAUAUGUGUGUGGUGUAUACAUAGUGAUGUUGUGUAUAUCCACAUAUGUAUAGAAGGGAGAUGUGCAU [Skye_SS_FMNB] ?
## Result condition not met

* * *

system: MS2 coat protein; assay: apparent KD of MS2 coat protein; designed switch direction (-1 OFF switch, 1 ON switch): -1; higher = weaker reporter binding; settings: Eterna round: R95; input ligand: none
Property label: apparent KD of MS2 coat protein (nM)
Number in nM, nothing else.

Item sequence	Measurement unit	Observed measurement
GUAUGUUAUGAGGAUAUCGGUGAACAUACACAUCGAGAAGGCAUGACAUGAGGAUCACCCAUGUCAAGGAUGAA [Exclusion 6 - B - 18:a] (puzzle: Exclusion 6)	nM	18.3
AGAAGUAGUAACCGAUCCUACAUGAGGAUCACCCAUGUAGCGAGACGUGCACGCGAAGCUCGUCAGACUACCAGAUG [salish99_TOv1_r3_025] (puzzle: Sensor v3, turn-off variant 1)	nM	159
UAGGUGUGAGGAUAUGGUAAAGAUAAGAUGAUGAAAGAACUCCAGAAGGCACAUGAGGAUCACCCAUGUAGAAG [Mat - Exclusion 4 - Mod of JL - D30] (puzzle: Exclusion 4)	nM	24.7
CUGAGCAGACGGAGAUCCAACAUGAGGAUCACCCAUGUCUCAAAAGCUUUCUGCUCGUCUUAUCCUCCUCUGUUCUC [Engeonrati] (puzzle: Sensor v3, turn-off variant 1)	nM	151

Shift focus to the following entry.
## Task Consider the sequence AAAACAAACUUUUUGCUCGUCUUAUAUGACGCUCGAGUCACAUGAGGAUCACCCAUGUCUUCCUGUUUGAUAGUUGA [JR_SV3TOV2_Sub055] (puzzle: Sensor v3, turn-off variant 2) and give its recorded apparent KD of MS2 coat protein.
## Result 142

* * *

system: MS2 coat protein; assay: apparent KD of MS2 coat protein; designed switch direction (-1 OFF switch, 1 ON switch): 1; higher = weaker reporter binding; details: input ligand: FMN 200 uM
# reported apparent KD of MS2 coat protein; entries follow
All answers are understood in nM, so give the number only.

## Task Indicate its recorded apparent KD of MS2 coat protein; the sequence in question is UUAUCAUUGCAAGGAUAUUGAUUACAUGAGGAUCACCCAUGUUAAUGAACACUAUGUACUACUAACAAGAAGGUGCUAUAAAUU [JR_SSNG2_Sub041] (Eterna round: R96, puzzle: Same State NG 2)
## Result 35.1

## Task Identify measured apparent KD of MS2 coat protein associated with AGCCGAGACUGAGGAUAUUUUAAUCUACAUGAGGAUCACCCAUGUAACAACACGUGGUAUUGAUAGAAGAAGGCGGCUCGGCGC [Omei SS(NG)2 C] (Eterna round: R96, puzzle: Same State NG 2)
## Result 24.3

## Task Please report apparent KD of MS2 coat protein for the following sequence: GGUGGGUUACUACCAACACAUGAGGAUCACCCAUGUUUUGGGAAGGAUAUGGUACCUAUUUGGUACCAGAAGGUCCUGUUGGUG [salish99_SSNG3_r04_706] (Eterna round: R96, puzzle: Same State NG 3)
## Result 36.6

## Task Please give measured apparent KD of MS2 coat protein of the following entry: GCGAGCGUACUUGCAGACAUGAGGAUCACCCAUGUAAAUGGGAAGGAUAUGGUACCGUUUCGGUACCAGAAGGUCCUAAGUGAG [JL SSNG3 1.49] (Eterna round: R96, puzzle: Same State NG 3)
## Result 129

## Task Answer with the recorded apparent KD of MS2 coat protein of GAGUGGCAGUUAGGAUAUAUAGUGAUAAUGACAAUAGAAGGAACAGACAUGAGGAUCACCCAUGUAGGACUAAUCCAGAGAGAG [Parity 36 - Jieux - Same State NG 1] (Eterna round: R96, puzzle: Same State NG 1) only.
## Result 32.1
